tested on: HCV NS3/4A protease D168A variant; type: biochemical, Hepatitis C virus genotype 1a
Note to self: values exactly at 20 fold are t. So Fold change of Ki, D168A relative to WT at or above 20 fold is t, below is f.

compound="COC(=O)N[C@H](C(=O)N[C@H]1CCCCC/C=C\\[C@@H]2C[C@@]2(C(=O)NS(=O)(=O)C2(C)CC2)NC(=O)[C@@H]2C[C@@H](Oc3nc4cc(OC)ccc4nc3C)CN2C1=O)C(C)C [P4P5-1B]" class_name=f
compound="COc1ccc2nc(C)c(O[C@@H]3C[C@H]4C(=O)N[C@]5(C(=O)NS(=O)(=O)C6(C)CC6)C[C@H]5/C=C\\CCCCC[C@H](NC(=O)OC5(C)CC5)C(=O)N4C3)nc2c1 [P4-1]" class_name=f
compound="CCC1(OC(=O)N[C@H]2CCCCC/C=C\\[C@@H]3C[C@@]3(C(=O)NS(=O)(=O)C3(C)CC3)NC(=O)[C@@H]3C[C@@H](Oc4nc5cc(OC)ccc5nc4C)CN3C2=O)CCCC1 [P4-5]" class_name=f
compound="COc1ccc2nc(C)c(O[C@@H]3C[C@H]4C(=O)N[C@]5(C(=O)NS(=O)(=O)C6(C)CC6)C[C@H]5/C=C\\CCCCC[C@H](NC(=O)OC5C[C@@H]6C[C@@H]6C5)C(=O)N4C3)nc2c1 (stereo partly shown) [P4-7]" class_name=f
compound="COc1ccc2nc(C)c(O[C@@H]3C[C@H]4C(=O)N[C@]5(C(=O)NS(=O)(=O)C6(C)CC6)C[C@H]5/C=C\\CCCCC[C@H](NC(=O)OC5(C)CCC5)C(=O)N4C3)nc2c1 [P4-2]" class_name=t

Ask: Hi team, for COC(=O)NC1(C(=O)N[C@H]2CCCCC/C=C\[C@@H]3C[C@@]3(C(=O)NS(=O)(=O)C3(C)CC3)NC(=O)[C@@H]3C[C@@H](Oc4nc5cc(OC)ccc5nc4C)CN3C2=O)CCCC1 [P4P5-5] , is the recorded Fold change of Ki, D168A relative to WT at or above 20 fold?
Reply: t

Ask: Hi team, for COc1ccc2nc(C)c(O[C@@H]3C[C@H]4C(=O)N[C@]5(C(=O)NS(=O)(=O)C6(C)CC6)C[C@H]5/C=C\CCCCC[C@H](NC(=O)OC5CCCCC5)C(=O)N4C3)nc2c1 [P4-6] , is the recorded Fold change of Ki, D168A relative to WT at or above 20 fold?
Reply: f

###

biological target: HCV NS3/4A protease GT1a WT (Hepatitis C virus genotype 1a, UniProt P27958, C1185S); construct: His tag (cleaved yes); settings: 2 nM protease preincubated 1 h at room temperature with inhibitor, pH 7.5, 200 nM fluorogenic substrate; Morrison equation global fit; error from global fit of at least three replicates
Sequence (P27958 1027-1208 C1185S): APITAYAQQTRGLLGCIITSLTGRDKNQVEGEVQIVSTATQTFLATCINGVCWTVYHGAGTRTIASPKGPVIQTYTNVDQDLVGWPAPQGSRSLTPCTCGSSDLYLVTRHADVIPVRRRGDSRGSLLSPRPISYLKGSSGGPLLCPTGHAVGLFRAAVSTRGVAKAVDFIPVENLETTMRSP
recorded-endpoint: pKi
Give only the number. pKi is defined as minus log10 of concentration in molar units.

structure_string=COc1ccc2nc(C)c(O[C@@H]3C[C@H]4C(=O)N[C@]5(C(=O)NS(=O)(=O)C6(C)CC6)C[C@H]5/C=C\CCCCC[C@H](NC(=O)OC5(C)CC5)C(=O)N4C3)nc2c1 measured_result=8.35
structure_string=COc1ccc2nc(C)c(O[C@@H]3C[C@H]4C(=O)N[C@]5(C(=O)NS(=O)(=O)C6(C)CC6)C[C@H]5/C=C\CCCCC[C@H](NC(=O)OC5(C)CCC5)C(=O)N4C3)nc2c1 measured_result=8.85

Ask: Query: pKi; subject: COC(=O)N[C@H](C(=O)N[C@H]1CCCCC/C=C\[C@@H]2C[C@@]2(C(=O)NS(=O)(=O)C2(C)CC2)NC(=O)[C@@H]2C[C@@H](Oc3nc4cc(OC)ccc4nc3C)CN2C1=O)C(C)C
Reply: 7.89
